Assayed target: RORγ receptor (Homo sapiens)
Construct: Jurkat pEx/Gal/hRORγ CLBD/HYG pG51uc/blast
Sequence (P51449 269-508 limits assumed): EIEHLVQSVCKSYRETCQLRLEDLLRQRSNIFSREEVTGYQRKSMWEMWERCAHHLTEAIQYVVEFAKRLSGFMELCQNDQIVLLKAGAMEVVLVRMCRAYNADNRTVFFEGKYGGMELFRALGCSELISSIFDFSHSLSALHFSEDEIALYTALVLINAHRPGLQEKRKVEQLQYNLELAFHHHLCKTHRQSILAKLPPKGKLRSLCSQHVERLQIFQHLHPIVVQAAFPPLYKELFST
Experiment notes: General RORγ Gal4 reporter assay (inverse agonist activity, inhibition of luminescence)
Condition details: Gal4-luciferase reporter in Jurkat cells stably over-expressing hRORγ LBD; overnight incubation; 40 μM to 0.67 nM
Attribute measured: IC50 (nM)
Please state the figure in nM; there is no need to write the unit.

Request: Please state recorded IC50 (tested on RORγ receptor (Homo sapiens)) of NC(=O)C12CCC(C(=O)N3CCC4(S(=O)(=O)c5ccc(F)cc5)c5ncc(C(F)(C(F)(F)F)C(F)(F)F)cc5CCC34)(CC1)CC2 (stereo not drawn)
Result: 83

Request: Please state recorded IC50 (tested on RORγ receptor (Homo sapiens)) of NC(=O)[C@H]1CC[C@H](C(=O)N2CCC3(S(=O)(=O)c4ccc(F)cc4)c4ncc(C(F)(C(F)(F)F)C(F)(F)F)cc4CCC23)CC1 (stereo partly drawn)
Result: 78

Request: Please state recorded IC50 (tested on RORγ receptor (Homo sapiens)) of C[C@H]1C[C@H](C(=O)O)CC[C@H]1C(=O)N1CCC2(S(=O)(=O)c3ccc(F)cc3)c3ccc(C(F)(C(F)(F)F)C(F)(F)F)nc3CCC12 (stereo partly drawn)
Result: 5
